Target: hTREM2 (Homo sapiens, UniProt Q9NZC2)
Sequence (Q9NZC2 19-230): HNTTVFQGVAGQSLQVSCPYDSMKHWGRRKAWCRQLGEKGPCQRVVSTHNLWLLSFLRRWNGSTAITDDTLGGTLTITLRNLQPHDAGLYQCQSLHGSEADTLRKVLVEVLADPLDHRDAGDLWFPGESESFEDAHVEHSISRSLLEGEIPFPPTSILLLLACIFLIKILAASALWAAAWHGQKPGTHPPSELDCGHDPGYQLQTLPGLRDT
Sequence (O43914 22-113 partner): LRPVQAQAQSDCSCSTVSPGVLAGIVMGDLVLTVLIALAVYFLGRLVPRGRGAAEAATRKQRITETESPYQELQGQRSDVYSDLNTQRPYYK
Experiment: Phospho-Syk AlphaScreen/AlphaLISA assay in TREM2 and DAP12 overexpressing HEK293 cells (Example A1)
Type: cell-based
Design: expressed in transfected cells
Details: HEK293 cells, read-out: hTREM2 EC50
Listing of recorded EC50 by entry.

Worked cases, EC50 given:
MOLECULE: Cc1nc2cc(N3CCO[C@@H](c4cnn(C)c4)C3)nc(-c3ccc(Cl)cc3F)c2c(=O)n1C
TARGET OF ASSAY: hTREM2 (Homo sapiens, UniProt Q9NZC2)
ENDPOINT VALUE: 50 to 500 nM
--
MOLECULE: Cc1nc2cc(N3CCO[C@H](c4ccncc4)C3)nc(-c3ccc(Cl)cc3F)c2c(=O)n1C [Example 226]
TARGET OF ASSAY: hTREM2 (Homo sapiens, UniProt Q9NZC2)
ENDPOINT VALUE: 50 to 500 nM
--
MOLECULE: Cc1nc2cc(N3CCO[C@H](c4ccc(OCC(F)(F)F)nc4)C3)nc(-c3ccc(Cl)cc3F)c2c(=O)n1C
TARGET OF ASSAY: hTREM2 (Homo sapiens, UniProt Q9NZC2)
ENDPOINT VALUE: 500 to 3000 nM
--
MOLECULE: COc1ccc([C@@H]2CN(c3cc4nc(C)n(C)c(=O)c4c(-c4ccc(Cl)cc4F)n3)CCO2)cc1 (single isomer, unassigned) [Example 79]
TARGET OF ASSAY: hTREM2 (Homo sapiens, UniProt Q9NZC2)
ENDPOINT VALUE: 500 to 3000 nM
--
MOLECULE: Cc1nc2cc(N3CCc4ccnc(Cl)c4C3)nc(-c3ccc(Cl)cc3F)c2c(=O)n1C
TARGET OF ASSAY: hTREM2 (Homo sapiens, UniProt Q9NZC2)
ENDPOINT VALUE: 50 to 500 nM
--
MOLECULE: CCCn1c(C)nc2cc(N3CCO[C@H](c4ccnn4C)C3)nc(-c3ccc(Cl)cc3F)c2c1=O [Example 184]
TARGET OF ASSAY: hTREM2 (Homo sapiens, UniProt Q9NZC2)
ENDPOINT VALUE: 50 to 500 nM

Switching to the query record.
I am curious: what EC50 value has been reported for Cc1cc([C@H]2CN(c3cc4nc(C)n(C)c(=O)c4c(-c4ccc(Cl)cc4F)n3)CCO2)ccn1 ?
< 50 nM

Data origin: patent US20250388574A1
